In this section, each of the molecules is paired with its reported TGI.
Test system: EKVX NSCLC
Assay: NCI tumour cell line growth inhibition, 48 h

// known answers, use as guide
INSERT INTO assay_data (molecule, measurement_type, measurement) VALUES
  ('Cc1ccc(-c2n[nH]c(=O)n2/N=C\c2ccccc2O)cc1', 'TGI', '> 100 µM'),
  ('Cc1c2cnccc2c(C)c2c1c1ccccc1n2CCOC(=O)c1ccccc1', 'TGI', '47.9 µM'),
  ('CC(C)(CN1CCCCC1)C(=O)/C=C/c1ccccc1', 'TGI', '35.2 µM'),
  ('NC(N)=N/N=C/c1c(-c2ccccc2[N+](=O)[O-])nc2sccn12', 'TGI', '> 100 µM');

Query: Dear colleague, I am looking for the recorded TGI of the following molecule: Cc1cc(N(CCC#N)CCC#N)ccc1/C=C(\NC(=O)/C=C/c1ccccc1)C(=O)N=[N+]=[N-]
Result: > 100 µM

Query: Next: COc1ccc(-c2csc3c2-n2cccc2C3=O)cc1
Result: > 81.4 µM

Query: Cc1cccc(Nc2nc3ccccc3nc2NS(=O)(=O)c2ccc(N)cc2)c1 ?
Result: > 100 µM

Query: Input O=S1OC(c2ccccc2)(c2ccccc2)C(c2ccccc2)(c2ccccc2)O1
Result: > 100 µM

Query: Could you do the same for CCN(CC)CC(=O)NC1c2ccccc2Oc2ccccc21 , please?
Result: > 100 µM

Query: Another molecule to check: COc1cc2nc3n(c2cc1OC)C(O)c1c(Cl)nc(SC)nc1S3 (stereo unspecified)
Result: 40.6 µM

Query: Then Brc1ccc(C2=NCSC(c3ccc(Br)cc3)=N2)cc1 ?
Result: 38.5 µM

---

Test system: SK-MEL-5 melanoma
Test: NCI tumour cell line growth inhibition, 48 h
Recorded TGI by entry
The reply should be a number in µM, with the unit left off.

Solved entries (count: 2):
INSERT INTO assay_data (compound, study_system, measurement_type, unit_of_measurement, measurement) VALUES
  ('CSC(=S)CC(O)[C@@H]1CC2c3ccccc3C1c1ccccc12 (stereo not given in full)', 'SK-MEL-5 melanoma', 'TGI', 'µM', 30.5),
  ('CCN1CCN(CCC(=O)Nc2cccc(-n3cc(-c4ccncc4)c(-c4ccc(Cl)c(OC)c4)n3)c2)CC1', 'SK-MEL-5 melanoma', 'TGI', 'µM', 1.83);

Then this compound:
Query: Find TGI (SK-MEL-5 melanoma) for the entry COc1ccc(-c2nc3sc(-c4cc(OC)c(OC)c(OC)c4)nn3c2/C=C2/C(=O)Nc3ccc(F)cc32)cc1
Result: 3.65

---

System: DU-145 prostate
Experiment: NCI tumour cell line growth inhibition, 48 h; in the data active = GI50 below about 0.43 µM; inactive = the rest
Lab note: assign the record to one of class 1 (active), class 0 (inactive)

INSERT INTO results (structure_smiles_string, category) VALUES
  ('O=C1C=C(Nc2ccccc2)c2ccccc2C1=O', 'class 0'),
  ('CCCCn1c(=O)[nH]c(N)c([C@@H]2c3c([nH]c(=O)n(CCCC)c3=O)Oc3ccc4ccccc4c32)c1=O', 'class 0'),
  ('COc1ccc(-c2nc3sc(-c4cc(OC)c(OC)c(OC)c4)nn3c2/C=C2/C(=O)Nc3ccc(F)cc32)cc1', 'class 0'),
  ('CC1=C(CCCOC(=O)[C@H](N)CC(C)C)C2=C(C)C3(CC3)[C@@](C)(O)C(=O)C2=C1', 'class 1');

Query: Which outcome did this test record for the compound Cn1ncnc1[C@@H]1c2n[nH]c(=O)c3cc(F)cc(c23)N[C@H]1c1ccc(F)cc1 ?
Result: class 0
